This collection of values is drawn from BindingDB's records for doi:10.1021/jm060108a.

- ASSAY TEXT: Inhibition of U46619-induced platelet aggregation
ASSAY METRIC: pIC50
Please keep in mind that pIC50 is minus log10 of the molar concentration; only the number is needed.

{"COMPOUND": "Cc1ccc(Sc2ccc([N+](=O)[O-])cc2S(=O)(=O)NC(=O)NC(C)(C)C)cc1", "ASSAY METRIC": "pIC50", "READING": 6.10}

Q) Can you look up the measured pIC50 of `CCCCCNC(=O)NS(=O)(=O)c1cc([N+](=O)[O-])ccc1Nc1ccc(C)cc1` for me?
A) 6.56

Q) And then Cc1ccc(Nc2ccc([N+](=O)[O-])cc2S(=O)(=O)NC(=O)NC(C)(C)C)cc1 [BM 573] , what is it?
A) 6.62

Q) Also, `Cc1ccc(Oc2ccc([N+](=O)[O-])cc2S(=O)(=O)NC(=O)NC(C)(C)C)cc1` please.
A) 6.52

Q) Further, for `Cc1cccc(C)c1Nc1ccc([N+](=O)[O-])cc1S(=O)(=O)NC(=O)NC(C)(C)C` ?
A) 7.05

Q) Thanks! And `CCCCCNC(=O)NS(=O)(=O)c1cc([N+](=O)[O-])ccc1Oc1ccc(C)cc1` ?
A) 6.17

Q) Now consider `Cc1ccc(Nc2ccc([N+](=O)[O-])cc2S(=O)(=O)NC(=O)N2CCCCC2)cc1` .
A) 6.05
